method_description: Solubility of active agents in neat alkyl ketal esters (dissolution, storage at room temperature)
test_context: solvent Et-LGK; dissolved at 35-80° C.; still soluble after storage at room temperature (24 hours to 5 days) where stated
measured_metric: % solids dissolved in Et-LGK with heat, no precipitation
Form entry: enter the amount, then its unit.

// solved cases for % solids dissolved in Et-LGK with heat, no precipitation follow
compound: O=C(OOC(=O)c1ccccc1)c1ccccc1 [Benzoyl peroxide]
reported_value: 5%
--
compound: COc1ccc(C(=O)c2ccccc2)c(O)c1
reported_value: 20%
--
compound: Oc1ccc(O)cc1 [Hydroquinone]
reported_value: 5%

Need % solids dissolved in Et-LGK with heat, no precipitation, item Nc1ccc(N)cc1
5%
